experimental.protocol: The drug is tested on Z-004 corresponding to metagenome with ENA study accession number: PRJEB37062 and ENA sample accession number: ERS12561804 for biotransformation under anaerobic condition. The drug concentrations were measured over 9 timepoints collected between 0 and 24 hours of incubation by liquid-chromatography-coupled mass spectrometry (LC–MS); further: call rule not given here
recorded.conditions: 2 µM
measured.quantity: Bacterial Biotransformation

See these solved cases before continuing.
compound: CC(C)(C)NC(=O)[C@H]1CC[C@H]2[C@@H]3CC[C@H]4NC(=O)C=C[C@]4(C)[C@H]3CC[C@]12C [FINASTERIDE]
Bacterial Biotransformation: Compound NOT metabolized
//
compound: CC(NC(C)(C)C)C(=O)c1cccc(Cl)c1 (stereo unspecified) [BUPROPION]
Bacterial Biotransformation: Compound NOT metabolized
//
compound: CC[C@@]1(O)C(=O)OCc2c1cc1n(c2=O)Cc2cc3c(CN(C)C)c(O)ccc3nc2-1 [TOPOTECAN]
Bacterial Biotransformation: Compound NOT metabolized
//
compound: CCOC(=O)[C@H](CCc1ccccc1)N[C@@H](C)C(=O)N1CCC[C@H]1C(=O)O.O=C(O)/C=C\C(=O)O [ENALAPRIL MALEATE]
Bacterial Biotransformation: Compound NOT metabolized
//
compound: COc1ccc(C(CN(C)C)C2(O)CCCCC2)cc1 (stereo unspecified) [VENLAFAXINE]
Bacterial Biotransformation: Compound NOT metabolized

Could you tell me which Bacterial Biotransformation is on file for `CCOC(=O)[C@H](CCc1ccccc1)N[C@@H](C)C(=O)N1Cc2ccccc2C[C@H]1C(=O)O` ? Compound NOT metabolized

Could you tell me which Bacterial Biotransformation is on file for C[C@]12C=CC(=O)C=C1CC[C@@H]1[C@@H]2C(=O)C[C@@]2(C)[C@H]1CC[C@]2(O)C(=O)CO [PREDNISONE] ? Compound metabolized

Could you tell me which Bacterial Biotransformation is on file for COC1=C(OC)C(=O)C(CCCCCCCCCCO)=C(C)C1=O [IDEBENONE] ? Compound NOT metabolized

Could you tell me which Bacterial Biotransformation is on file for CC(C)(C)NCC(O)c1cc(Cl)c(N)c(Cl)c1 (stereo unspecified) [CLENBUTEROL] ? Compound NOT metabolized

Could you tell me which Bacterial Biotransformation is on file for Clc1cccc(Cl)c1N=C1NCCN1 [CLONIDINE] ? Compound metabolized

Could you tell me which Bacterial Biotransformation is on file for N=C(N)NC(=O)Cc1c(Cl)cccc1Cl [GUANFACINE] ? Compound NOT metabolized

Could you tell me which Bacterial Biotransformation is on file for CC(=O)Oc1ccc(C(c2ccc(OC(C)=O)cc2)c2ccccn2)cc1 [BISACODYL] ? Compound metabolized

Could you tell me which Bacterial Biotransformation is on file for C[C@]12CCC(=O)C=C1[C@@H]1C[C@@H]1[C@H]1[C@@H]3[C@@H]4C[C@@H]4[C@@]4(CCC(=O)O4)[C@@]3(C)CC[C@@H]12 [DROSPIRENONE] ? Compound NOT metabolized

Could you tell me which Bacterial Biotransformation is on file for CC1Cc2ccccc2N1NC(=O)c1ccc(Cl)c(S(N)(=O)=O)c1 (stereo unspecified) [INDAPAMIDE] ? Compound NOT metabolized

Could you tell me which Bacterial Biotransformation is on file for CC(C)c1nc(N(C)S(C)(=O)=O)nc(-c2ccc(F)cc2)c1/C=C/[C@@H](O)C[C@@H](O)CC(=O)[O-].CC(C)c1nc(N(C)S(C)(=O)=O)nc(-c2ccc(F)cc2)c1/C=C/[C@@H](O)C[C@@H](O)CC(=O)[O-].[Ca+2] [ROSUVASTATIN CALCIUM] ? Compound NOT metabolized

Could you tell me which Bacterial Biotransformation is on file for CC12CC3CC(C)(C1)CC(N)(C3)C2 [MEMANTINE] ? Compound NOT metabolized
